Data credit: the supplement of paper PMC7411054

Tested on: HepG2-TUBA1B-RELA
Assay: lowest phenotypically active concentration; higher = less potent
Settings: treatment time: 24 h
Please provide measured lowest phenotypically active concentration for the entries that follow.

INPUT: lowest phenotypically active concentration lookup needed for `O=C(O)[C@]1(Cc2cccc(Nc3nccs3)n2)CC[C@@H](Oc2cccc(Cl)c2F)CC1` , thanks.
OUTPUT: ≤ 0.3 µM

INPUT: lowest phenotypically active concentration lookup needed for `O=C(Cc1ccc(-c2ccc(OCCN3CCOCC3)cc2)cn1)NCc1ccccc1` , thanks.
OUTPUT: ≤ 0.3 µM

INPUT: lowest phenotypically active concentration lookup needed for Nc1ccc(-c2ccc3ncc4ccc(=O)n(-c5cccc(C(F)(F)F)c5)c4c3c2)cn1 [Torin 2] , thanks.
OUTPUT: ≤ 0.3 µM
